# experimental_system: human Smo (Homo sapiens (Human))
# experiment_summary: Smo radioligand competition binding assay
# condition_set: 0.05 μM test compound; read-out: Smo % inh. @ 0.05 μM
Each entry below carries its recorded inhibition at 0.05 µM.

compound	experimental_system	uom	inhibition at 0.05 µM
Cc1cccnc1-c1cc(N2CCC(C(=O)N[C@@H]3CC[C@@H](O)C3)CC2)ncc1Cl [Example A-66]	human Smo (Homo sapiens (Human))	%	81.7
COCCS(=O)(=O)N1CCN(c2cc(-c3ncc(C)cc3C)c(Cl)cn2)CC1 [Example A-110]	human Smo (Homo sapiens (Human))	%	94.4
Cc1cnc(-c2cc(N3CCC(NC(=O)CCS(C)(=O)=O)CC3)ncc2Cl)c(C)c1 [Example A-122]	human Smo (Homo sapiens (Human))	%	103
Cc1cccnc1-c1nc(N2CCC(CS(C)(=O)=O)CC2)ncc1Cl [Example A-97]	human Smo (Homo sapiens (Human))	%	95.4
COCCS(=O)(=O)N1CCN(c2cc(-c3ncc(C)cc3C)ccn2)CC1 [Example A-155]	human Smo (Homo sapiens (Human))	%	77.1
CS(=O)(=O)NC1CCN(c2cc(-c3ncc(Cl)cc3F)c(Cl)cn2)CC1 [Example A-17]	human Smo (Homo sapiens (Human))	%	63
Cc1cccnc1-c1cc(N2CCC(C(=O)N[C@H]3CC[C@H](CO)CC3)CC2)ncc1Cl [Example A-89]	human Smo (Homo sapiens (Human))	%	94.6
Cc1cccnc1-c1cc(N2CCC(C(=O)N[C@@H]3CCN(S(C)(=O)=O)C3)CC2)ncc1Cl [Example A-57]	human Smo (Homo sapiens (Human))	%	87.9
Cc1cnc(-c2ccnc(N3CCN(C(=O)CN4CCOCC4)CC3)c2)c(C)c1 [Example A-157]	human Smo (Homo sapiens (Human))	%	101
COCCS(=O)(=O)NC1CCN(c2ccc(Cl)c(-c3ccccn3)n2)CC1 [Example A-123]	human Smo (Homo sapiens (Human))	%	90.4
COCCC(=O)N1CCN(c2cc(-c3ncccc3C)c(Cl)cn2)CC1 [Example A-29]	human Smo (Homo sapiens (Human))	%	89.3
CS(=O)(=O)NC1CCN(c2ccc(Cl)c(-c3ccccn3)n2)CC1 [Example A-15]	human Smo (Homo sapiens (Human))	%	83
Cc1cc(C#N)cnc1-c1cc(N2CCC(NS(C)(=O)=O)CC2)ncc1Cl [Example A-125]	human Smo (Homo sapiens (Human))	%	82.3
CS(=O)(=O)NC1CCN(c2cc(-c3ccc(Cl)cn3)c(Cl)cn2)CC1 [Example A-11]	human Smo (Homo sapiens (Human))	%	78
Cc1cccnc1-c1cc(N2CCC(C(=O)N[C@@H]3CS(=O)(=O)C[C@H]3O)CC2)ncc1Cl [Example A-68]	human Smo (Homo sapiens (Human))	%	88.8
Cc1cccnc1-c1cc(N2CCC(C(=O)Nc3cccc(CO)n3)CC2)ncc1Cl [Example A-75]	human Smo (Homo sapiens (Human))	%	88.6
Cc1cccnc1-c1cc(N2[C@@H]3CC[C@H]2CN(C(=O)CC(C)(C)O)C3)ncc1Cl [Example A-107]	human Smo (Homo sapiens (Human))	%	82.7

---

# experimental_system: human Smo (Homo sapiens (Human), UniProt Q99835)
# Sequence (Q99835 181-787): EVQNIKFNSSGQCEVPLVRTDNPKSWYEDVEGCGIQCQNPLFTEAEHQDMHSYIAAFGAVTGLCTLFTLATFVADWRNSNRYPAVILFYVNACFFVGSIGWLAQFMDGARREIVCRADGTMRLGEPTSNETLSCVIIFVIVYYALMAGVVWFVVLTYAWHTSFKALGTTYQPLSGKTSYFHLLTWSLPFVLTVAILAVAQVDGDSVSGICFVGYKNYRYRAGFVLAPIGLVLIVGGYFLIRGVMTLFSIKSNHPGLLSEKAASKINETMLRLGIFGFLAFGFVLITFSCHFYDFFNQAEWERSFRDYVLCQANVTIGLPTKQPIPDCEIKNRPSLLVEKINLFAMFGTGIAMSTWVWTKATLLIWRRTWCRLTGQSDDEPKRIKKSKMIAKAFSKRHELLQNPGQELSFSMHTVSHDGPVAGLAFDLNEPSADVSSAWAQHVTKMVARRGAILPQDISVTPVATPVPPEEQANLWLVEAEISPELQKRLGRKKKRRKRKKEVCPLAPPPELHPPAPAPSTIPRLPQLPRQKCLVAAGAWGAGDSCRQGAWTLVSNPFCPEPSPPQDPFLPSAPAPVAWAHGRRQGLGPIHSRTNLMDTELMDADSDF
# experiment_summary: Smo radioligand competition binding assay
# condition_set: 0.05 μM test compound; read-out: Smo % inh. @ 0.05 μM
Each entry below carries its recorded inhibition at 0.05 µM.

molecule	experimental_system	inhibition at 0.05 µM [%]
Cc1cccnc1-c1cc(N2CCC(C(=O)NCC3CCCCO3)CC2)ncc1Cl (stereo not shown)	human Smo (Homo sapiens (Human), UniProt Q99835)	78.9
Cc1cccnc1-c1cc(N2CCC(C(=O)NC3(c4ccccn4)CC3)CC2)ncc1Cl	human Smo (Homo sapiens (Human), UniProt Q99835)	83.7
CS(=O)(=O)NC1CCN(c2ncc(Cl)c(-c3ccccn3)n2)CC1	human Smo (Homo sapiens (Human), UniProt Q99835)	80.1
Cc1cccnc1-c1cc(N2CCC(C(=O)N[C@H]3CC[C@H](O)CC3)CC2)ncc1Cl (stereo in doubt)	human Smo (Homo sapiens (Human), UniProt Q99835)	85.7

---

# experimental_system: human Smo (Homo sapiens (Human), UniProt Q99835)
# experiment_summary: Smo radioligand competition binding assay
# condition_set: 0.05 μM test compound; read-out: Smo % inh. @ 0.05 μM
Each entry below carries its recorded inhibition at 0.05 µM.

molecule	uom	inhibition at 0.05 µM
Cc1cccnc1-c1cc(N2CCC(C(=O)NC3(CO)CCCC3)CC2)ncc1Cl	%	91.6
Cc1cccnc1-c1cc(N2CCC(C(=O)NC3CCOC4(CCN(C)CC4)C3)CC2)ncc1Cl (stereo not shown)	%	71.5
Cc1cnc(-c2cc(N3CCN(CCS(C)(=O)=O)CC3)ncc2Cl)c(C)c1	%	72.9
Cc1cccnc1-c1cc(N2CCC(C(=O)NCC3(O)CCC3)CC2)ncc1Cl	%	78.1

---

# experiment_summary: Assessment of brain penetration in rats
# Format: in vivo
# condition_set: rat, brain, sc; Wistar rats, 10 mg/kg subcutaneously, 1 hour; read-out: brain concentration
value_type: concentration at 1 h

Cc1cnc(-c2cc(N3CCN(C(=O)CCS(C)(=O)=O)CC3)ncc2Cl)c(C)c1 201 ng/g

---

# System: Gli-Luc/MEF cells
# experiment_summary: Gli-Luc/MEF assay
# Assay type: cell-based, mouse
# condition_set: Mus musculus, MEF; Shh-stimulated luciferase, 48 hours
value_type: log10(IC50) (log10 of the value in nM)

compound	log10(IC50)
Cc1cccnc1-c1cc(N2CCC(C(=O)NC3CCS(=O)(=O)CC3)CC2)ncc1Cl [Example A-80]	1.22
Cc1cnc(-c2cc(N3CCN(C(=O)CO)CC3)ncc2Cl)c(C)c1 [Example A-102]	1.78
Cc1cccnc1-c1cc(N2CCN(c3ncc(Br)cn3)CC2)ncc1Cl [Example A-46]	1.32
Cc1cnc(-c2cc(N3CCN(S(=O)(=O)CCO)CC3)ncc2Cl)c(C)c1 [Example A-111]	1.01
Cc1cnc(-c2ccnc(N3CCC(NS(C)(=O)=O)CC3)c2)c(C)c1 [Example A-143]	1.02
COC(=O)N1CCN(c2cc(-c3ncccc3C)c(Cl)cn2)CC1 [Example A-24]	2.10
Cc1cnc(-c2cc(N3CCC(NC(=O)CCS(C)(=O)=O)CC3)ncc2Cl)c(C)c1 [Example A-122]	0.74
CS(=O)(=O)NC1CCN(c2cc(-c3ccc(C(F)(F)F)cn3)c(Cl)cn2)CC1 [Example A-13]	2.61
CCN(CC)C(=O)COC1CCN(c2cc(-c3ncccc3C)c(Cl)cn2)CC1 [Example A-41]	1.45
Cc1cccnc1-c1cc(N2CCC(C(=O)Nc3cccc(CO)n3)CC2)ncc1Cl [Example A-75]	1.68
Cc1cnc(-c2cc(N3CCC(NC(=O)CN(C)C)CC3)ncc2Cl)c(C)c1 [Example A-114]	0.59
COCCS(=O)(=O)N1CCN(c2ccc(Cl)c(-c3ccccn3)n2)CC1 [Example A-136]	2.07
Cc1cnc(-c2cc(N3CCN(C(=O)CC(C)(C)O)CC3)ncc2Cl)c(C)c1 [Example A-103]	1.07
Cc1cccnc1-c1cc(N2CCC(C(=O)N3CCc4c(c(C(C)C)nn4C)C3)CC2)ncc1Cl [Example A-65]	2.09
CC(=O)N1CCN(c2cc(-c3ncc(C)cc3C)c(Cl)cn2)CC1 [Example A-100]	1.70
O=S(=O)(CCO)NC1CCN(c2ccc(Cl)c(-c3ccccn3)n2)CC1 [Example A-126]	1.01
Cc1cccnc1-c1cc(N2CCC(NC(=O)CN(C)C)CC2)ncc1Cl [Example A-31]	1.32
Cc1cccnc1-c1cc(N2CCC(C(=O)N[C@H]3CC[C@H](O)CC3)CC2)ncc1Cl (stereo in doubt) [Example A-71]	1.60
Cc1cccnc1-c1cc(N2CCC(NC(=O)CC(C)(C)O)CC2)ncc1Cl [Example A-52]	1.45
CCS(=O)(=O)NC1CCN(c2cc(-c3ncc(C)cc3C)c(Cl)cn2)CC1 [Example A-121]	0.63
Cc1cccnc1-c1cc(N2CCC(CNCCS(C)(=O)=O)CC2)ncc1Cl [Example A-96]	1.80
Cc1cccnc1-c1cc(N2CC(C(=O)N(C)[C@@H]3CS(=O)(=O)C[C@H]3O)C2)ncc1Cl [Example A-69]	2.17
CC(=O)N1CCN(c2cc(-c3ncccc3C)c(Cl)cn2)CC1 [Example A-23]	2.29
Cc1cccnc1-c1cc(N2CCC(C(=O)NCCC3C(=O)Nc4ccccc43)CC2)ncc1Cl (stereo not shown) [Example A-61]	1.57
O=S(=O)(NC1CCN(c2ccc(Cl)c(-c3ccccn3)n2)CC1)C1CC1 [Example A-133]	1.07
Cc1cccnc1-c1nc(N2CCC(O)CC2)ncc1Cl [Example A-30]	2.39
CCCNC(=O)COC1CCN(c2cc(-c3ncccc3C)c(Cl)cn2)CC1 [Example A-40]	2.06
CS(=O)(=O)NC1CCN(c2ncc(Cl)c(-c3ccccn3)c2F)CC1 [Example A-138]	1.47
Cc1cccnc1-c1cc(N2CCC(C(=O)NC3CCOC3)CC2)ncc1Cl (stereo not shown) [Example A-78]	1.94
Cc1cccnc1-c1cc(N2CCC(C(=O)NCCc3nc4cccnc4n3C)CC2)ncc1Cl [Example A-73]	1.75
CCS(=O)(=O)NC1CCN(c2ccc(Cl)c(-c3ccccn3)n2)CC1 [Example A-132]	1.53
Cc1cccnc1-c1cc(N2CCC(OCC(C)C)CC2)ncc1Cl [Example A-38]	1.78
Cc1cccnc1-c1cc(N2CCC(C(=O)N3CCC(Nc4ccccn4)CC3)CC2)ncc1Cl [Example A-56]	1.62
CS(=O)(=O)NC1CCN(c2cc(-c3ncc(Cl)cc3F)c(Cl)cn2)CC1 [Example A-17]	1.78
